Just for reference, patent US9371342B2 is where these values come from.

- tested-target: variant enzyme N31Q of undecaprenyl diphosphate synthase (Micrococcus luteus, UniProt O82827, N31Q)
- Construct: made in house; host or cells: E. coli; site-directed mutagenesis of pET22b/MLU-UPS
- test: Relative activity of variant enzyme N31Q on initiating substrates
- Assay type: biochemical, Micrococcus luteus B-P 26
- assay-setup: index, activity of wild-type enzyme on same initiating substrate as 100; 12.5 μM initiating substrate, 1 hour, 37° C.
Relative activity listing for selected molecules.
Please reply with the value in numeric form only.

CCCSC/C(C)=C/CC/C(C)=C/COP(=O)(O)OP(=O)(O)O	101
COCOC/C(C)=C/CC/C(C)=C/COP(=O)(O)OP(=O)(O)O	110
CC[C@@H](O)CC/C(C)=C/CC/C(C)=C/COP(=O)(O)OP(=O)(O)O [Compound of formula (E)]	210
CC[C@H](O)CC/C(C)=C/CC/C(C)=C/COP(=O)(O)OP(=O)(O)O	104

Entry CCC(O)CC/C(C)=C/CC/C(C)=C/COP(=O)(O)OP(=O)(O)O [Compound of formula (R)] has what Relative activity? 146

----------
- tested-target: Micrococcus luteus B-P 26-derived undecaprenyl diphosphate synthase (wild-type enzyme) (Micrococcus luteus, UniProt O82827)
- Construct: made in house; host or cells: E. coli; plasmid pET22b/MLU-UPS
- Sequence (O82827 whole entry): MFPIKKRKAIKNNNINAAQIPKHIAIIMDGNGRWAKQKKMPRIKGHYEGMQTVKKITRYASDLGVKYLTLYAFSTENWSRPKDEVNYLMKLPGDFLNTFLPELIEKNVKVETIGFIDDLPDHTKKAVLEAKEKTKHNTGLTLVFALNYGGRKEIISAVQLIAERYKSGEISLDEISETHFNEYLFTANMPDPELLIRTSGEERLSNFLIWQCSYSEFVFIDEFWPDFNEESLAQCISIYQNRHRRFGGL
- test: Relative activity of wild-type undecaprenyl diphosphate synthase on initiating substrates
- Assay type: biochemical
- assay-setup: activity of the enzyme on farnesyl diphosphate as 100; 12.5 μM initiating substrate, pH 7.5, 1 hour, 37° C.
measurement-kind: Relative activity (%)
# unit: % | format: bare number

Record excerpt, results attached:
CCCCC(OC)/C(C)=C/CC/C(C)=C/COP(=O)(O)OP(=O)(O)O (stereo not drawn)	68.4
CC(C)=CCC/C(C)=C/CC/C=C/COP(=O)(O)OP(=O)(O)O [Initiating substrate 3]	1.2
CCCCC(O)/C(C)=C/CC/C(C)=C/COP(=O)(O)OP(=O)(O)O (stereo not drawn)	74.8
CC(C)=CCC/C(C)=C/CC/C(C)=C/CC/C=C/COP(=O)(O)OP(=O)(O)O [Initiating substrate 4]	5.9
C/C=C/COP(=O)(O)OP(=O)(O)O [Initiating substrate 1, 2E-butenyl diphosphate]	0.3

Continue with the molecule presented below.
Entry CC(C)=CCC/C=C/COP(=O)(O)OP(=O)(O)O [Initiating substrate 2, 7-methyl-octa-2E,6E-dienyl diphosphate] has what Relative activity (%)? 0.6

----------
- tested-target: variant enzyme F95W of undecaprenyl diphosphate synthase (Micrococcus luteus, UniProt O82827, F95W)
- Construct: made in house; host or cells: E. coli; site-directed mutagenesis of pET22b/MLU-UPS
- Sequence (O82827 whole entry F95W): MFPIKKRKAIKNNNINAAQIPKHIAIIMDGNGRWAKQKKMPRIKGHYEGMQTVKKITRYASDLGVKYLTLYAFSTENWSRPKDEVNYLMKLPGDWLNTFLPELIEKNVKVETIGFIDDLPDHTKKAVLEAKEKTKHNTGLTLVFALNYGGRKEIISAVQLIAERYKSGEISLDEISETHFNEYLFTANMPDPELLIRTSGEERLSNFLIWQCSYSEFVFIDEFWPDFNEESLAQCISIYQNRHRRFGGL
- test: Relative activity of variant enzyme F95W on initiating substrates
- Format: biochemical, Micrococcus luteus B-P 26
- assay-setup: index, activity of wild-type enzyme on same initiating substrate as 100; 12.5 μM initiating substrate, 1 hour, 37° C.
- Procedure: Reaction was performed under conditions shown below using each of the initiating substrates prepared in Production Examples 1 to 11 or farnesyl diphosphate. The activity of each variant enzyme on each initiating substrate was indicated by index with the activity of the wild-type enzyme (Micrococcus luteus B-P 26-derived undecaprenyl diphosphate synthase) as 100. After the reaction, liquid scintillation counting and TLC quantification were performed to measure the activity of each enzyme.
Relative activity listing for selected compounds.
Please reply with the value in numeric form only.

Record excerpt, results attached:
CCC(CC/C(C)=C/CC/C(C)=C/COP(=O)(O)OP(=O)(O)O)C(C)=O [Compound of formula (S)]	130
CC[C@H](O)CC/C(C)=C/CC/C(C)=C/COP(=O)(O)OP(=O)(O)O	120
C/C(=C\COP(=O)(O)OP(=O)(O)O)CC/C=C(\C)COCc1ccccc1	147
CCCCC(OC)/C(C)=C/CC/C(C)=C/COP(=O)(O)OP(=O)(O)O (stereo not shown)	140
C/C(=C\COP(=O)(O)OP(=O)(O)O)CC/C=C(\C)CO[Si](C)(C)C(C)(C)C	130
CC[C@@H](O)CC/C(C)=C/CC/C(C)=C/COP(=O)(O)OP(=O)(O)O [Compound of formula (E)]	114

Entry CCC(O)CC/C(C)=C/CC/C(C)=C/COP(=O)(O)OP(=O)(O)O [Compound of formula (R)] has what Relative activity? 121
